Attribute: melting point

# example entries with known answers
[
  {
    "Compound": "NS(=O)(=O)c1ccc(NC(=O)CNC(=O)c2ccccc2Cl)cc1 [compound 20]",
    "Assay readout": "melting point",
    "Result": "249 to 251 °C"
  },
  {
    "Compound": "C[C@H](NC(=O)c1cccs1)C(=O)NCc1ccc(S(N)(=O)=O)cc1 [compound 43]",
    "Assay readout": "melting point",
    "Result": "221 to 223 °C"
  },
  {
    "Compound": "NS(=O)(=O)c1ccc(NC(=O)CNC(=O)c2cccc(Cl)c2)cc1 [compound 21]",
    "Assay readout": "melting point",
    "Result": "262 to 264 °C"
  },
  {
    "Compound": "C[C@H](NC(=O)c1ccccc1)C(=O)Nc1ccc(S(N)(=O)=O)cc1 [compound 14]",
    "Assay readout": "melting point",
    "Result": "260 to 261 °C"
  },
  {
    "Compound": "NS(=O)(=O)c1ccc(NC(=O)CNC(=O)c2ccco2)cc1 [compound 31]",
    "Assay readout": "melting point",
    "Result": "238 to 240 °C"
  }
]

Enquiry: Kindly indicate its recorded melting point. Item: C[C@H](NC(=O)c1ccccc1)C(=O)NCc1ccc(S(N)(=O)=O)cc1 [compound 37]
Return: 178 to 180 °C

Enquiry: Kindly indicate its recorded melting point. Item: NS(=O)(=O)c1ccc(CNC(=O)CNC(=O)c2ccccc2)cc1 [compound 36]
Return: 211 to 213 °C

Enquiry: Kindly indicate its recorded melting point. Item: C[C@H](N)C(=O)Nc1ccc(S(N)(=O)=O)cc1 [compound 11]
Return: 216 to 217 °C

Enquiry: Kindly indicate its recorded melting point. Item: NS(=O)(=O)c1ccc(NC(=O)CNC(=O)c2cccs2)cc1 [compound 32]
Return: 265 to 267 °C
